Each entry below carries its recorded viability, T/C.
# Tested on: T-47D spheroids with HUVEC/MSC, viability
# Run description: Anticancer human tumor T-47D cell line growth inhibition [PI3K];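 note: spheroids exposed to agents for seven days before reading; percent of DMSO vehicle control luminescence so 100% = untreated growth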
# Experimental setup: second compound 10 µM; first compound 0.0316 µM; hits give low values
// return numeric value only (unit: %, not printed)

Record excerpt, results attached:
| Compound | Measured quantity | Value observed |
| --- | --- | --- |
| CC(C)n1nc(-c2ccc3oc(N)nc3c2)c2c(N)ncnc21 + Cc1nc(NC(=O)N2CCCC2C(N)=O)sc1-c1ccnc(C(C)(C)C(F)(F)F)c1 | viability, T/C | 12.8 |
| C[C@@H](NC(=O)c1ncnc(N)c1Cl)c1ncc(C(=O)Nc2cc(C(F)(F)F)c(Cl)cn2)s1 + CC(Nc1ncnc2nc[nH]c12)c1cc2cccc(Cl)c2c(=O)n1-c1ccccc1 | viability, T/C | 105 |

Would you kindly look at the next entry?
Task item: Please tell me: viability, T/C of C=CC(=O)N1CCN(c2nc(=O)n(-c3c(C)ccnc3C(C)C)c3nc(-c4c(O)cccc4F)c(F)cc23)C(C)C1 (stereo not drawn) + Cc1nc(NC(=O)N2CCCC2C(N)=O)sc1-c1ccnc(C(C)(C)C(F)(F)F)c1 , system T-47D spheroids with HUVEC/MSC, viability?
Reply: 37

Cited source for all entries: PubChem BioAssay AID1963959
